B1: scFv; the commonest letter at each place (parent)
chain 1: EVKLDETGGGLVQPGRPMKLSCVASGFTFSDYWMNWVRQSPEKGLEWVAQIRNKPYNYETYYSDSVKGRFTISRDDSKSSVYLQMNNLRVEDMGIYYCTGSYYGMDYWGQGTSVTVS
chain 2: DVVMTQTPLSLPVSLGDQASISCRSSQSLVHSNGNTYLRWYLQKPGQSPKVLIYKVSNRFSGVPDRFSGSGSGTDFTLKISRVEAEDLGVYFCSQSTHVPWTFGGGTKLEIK

- Variants of: B1
- Assay procedure: Kd (Tite-Seq)
- Condition details: with fluorescein; format: scFv 4-4-20, heavy + light
Test readout: pKd
To interpret pKd, take it as minus log10 of a concentration measured in moles per litre.

Would you please look over these solved cases?
sequence_change="chain 1 T28Q" recorded_result=9.12
sequence_change="chain 1 F29S" recorded_result=7.58
sequence_change="chain 1 Y32W M34N" recorded_result=6.69

Here is the next item to consider.
// field: pKd; key: chain 1 Y103W W108L ; value = 8.78
